The measurements presented in this section are drawn from patent US10995087B2.

Assay: Plasma pharmacokinetics in male and female SD rats after single intravenous and intragastric administration
Assay type: in vivo
Conditions: rat, female SD rats, single intragastric (PO) 4.0 mg/kg, read-out: elimination half-life (T1/2) (converted)
measure: half-life (h)
Numbers only, in h.

For the compound shown here, CC(C)(Sc1nnc(Br)n1-c1sc(C2CC2)c2c1CCC(F)(F)C2)C(=O)O [compound of formula (I)] , give the reported half-life.
3.48

---

Test: Plasma pharmacokinetics in male and female SD rats after single intravenous and intragastric administration
Type: in vivo
Details: rat, female SD rats, single intragastric (PO) 4.0 mg/kg
measure: AUC(0-inf) (ng·h/mL)
Give bare numbers, in ng·h/mL.

For the molecule shown here, CC(C)(Sc1nnc(Br)n1-c1sc(C2CC2)c2c1CCC(F)(F)C2)C(=O)O [compound of formula (I)] , give the reported AUC(0-inf).
9010

---

Test: Plasma pharmacokinetics in male and female SD rats after single intravenous and intragastric administration
Format: in vivo
Conditions: rat, female SD rats, single intragastric (PO) 4.0 mg/kg, read-out: peak concentration (Cmax)
measure: Cmax (ng/mL)
Answers are plain numbers, in ng/mL.

For the compound shown here, `CC(C)(Sc1nnc(Br)n1-c1sc(C2CC2)c2c1CCC(F)(F)C2)C(=O)O` , give the reported Cmax.
2110

---

Target: uric acid transporter URAT1 (Homo sapiens, UniProt Q96S37)
Construct: the empty vector control is HEK293A-pcDNA3.1
Sequence (Q96S37 1-553): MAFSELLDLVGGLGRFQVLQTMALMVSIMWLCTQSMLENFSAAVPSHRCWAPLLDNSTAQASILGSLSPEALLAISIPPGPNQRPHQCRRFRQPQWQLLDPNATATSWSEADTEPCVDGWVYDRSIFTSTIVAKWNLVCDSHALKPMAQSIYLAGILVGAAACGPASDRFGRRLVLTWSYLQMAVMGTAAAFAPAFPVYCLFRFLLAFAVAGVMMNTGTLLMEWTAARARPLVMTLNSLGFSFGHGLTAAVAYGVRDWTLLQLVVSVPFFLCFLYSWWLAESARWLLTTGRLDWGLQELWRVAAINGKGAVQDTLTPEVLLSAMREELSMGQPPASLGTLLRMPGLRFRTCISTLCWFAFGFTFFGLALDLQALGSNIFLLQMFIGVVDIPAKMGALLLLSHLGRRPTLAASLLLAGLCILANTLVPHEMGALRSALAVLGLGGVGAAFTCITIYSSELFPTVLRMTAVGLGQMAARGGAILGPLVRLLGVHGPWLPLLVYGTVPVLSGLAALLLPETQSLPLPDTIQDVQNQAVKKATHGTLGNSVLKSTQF
Experiment: Uptake cell inhibition experiment: URAT1-mediated 14C-uric acid uptake in HEK293A-URAT1 cells
Conditions: HEK293A-URAT1 cells, 2 min administration, n=3; read-out: IC50, inhibition of uptake of 14C-UA mediated by URAT1
measure: IC50 (nM)
One number for each entry, in nM.

What measured IC50 is associated with CC(C)(Sc1nnc(Br)n1-c1sc(C2CC2)c2c1CCC(F)(F)C2)C(=O)O [compound of formula (I)] on uric acid transporter URAT1 (Homo sapiens, UniProt Q96S37)?
34

---

Assay: Solubility test of crystal form A in 9 vehicles (HPLC)
Type: physicochemical
Conditions: aqueous buffer, thermodynamic from solid; pH 6.0 buffer solution, 37° C., stirring 4 hrs
measure: solubility at 4 h (µg/mL)
Give bare numbers, in µg/mL.

For the molecule shown here, CC(C)(Sc1nnc(Br)n1-c1sc(C2CC2)c2c1CCC(F)(F)C2)C(=O)O [crystal form A] , give the reported solubility at 4 h.
214

---

Assay: Plasma pharmacokinetics in male and female SD rats after single intravenous and intragastric administration
Type: in vivo
Conditions: rat, male SD rats, single intragastric (PO) 4.0 mg/kg, read-out: peak concentration (Cmax)
measure: Cmax
In your response, put the unit directly after the numeric value.

For the compound shown here, CC(C)(Sc1nnc(Br)n1-c1sc(C2CC2)c2c1CCC(F)(F)C2)C(=O)O [compound of formula (I)] , give the reported Cmax.
1130 ng/mL

---

Assay: Plasma pharmacokinetics in male and female SD rats after single intravenous and intragastric administration
Format: in vivo
Details: rat, male SD rats, single intragastric (PO) 4.0 mg/kg, read-out: peak time Tmax
measure: Tmax
In your response, put the unit directly after the numeric value.

For the compound shown here, `CC(C)(Sc1nnc(Br)n1-c1sc(C2CC2)c2c1CCC(F)(F)C2)C(=O)O` , give the reported Tmax.
25 min

---

Assay: Plasma pharmacokinetics in male and female SD rats after single intravenous and intragastric administration
Format: in vivo
Settings: rat, female SD rats, IV single, 2.0 mg/kg
measure: AUC(0-inf) (ng·h/mL)
Give bare numbers, in ng·h/mL.

For the molecule shown here, `CC(C)(Sc1nnc(Br)n1-c1sc(C2CC2)c2c1CCC(F)(F)C2)C(=O)O` , give the reported AUC(0-inf).
5240

---

Assay: Plasma pharmacokinetics in male and female SD rats after single intravenous and intragastric administration
Assay type: in vivo
Settings: rat, male SD rats, single intragastric (PO) 4.0 mg/kg
measure: AUC(0-inf) (ng·h/mL)
One number for each entry, in ng·h/mL.

For the compound shown here, `CC(C)(Sc1nnc(Br)n1-c1sc(C2CC2)c2c1CCC(F)(F)C2)C(=O)O` , give the reported AUC(0-inf).
2510

---

Test: Plasma pharmacokinetics in male and female SD rats after single intravenous and intragastric administration
Type: in vivo
Conditions: rat, female SD rats, IV single, 2.0 mg/kg, read-out: elimination half-life (T1/2) (converted)
measure: half-life (h)
One number for each entry, in h.

For the compound shown here, CC(C)(Sc1nnc(Br)n1-c1sc(C2CC2)c2c1CCC(F)(F)C2)C(=O)O [compound of formula (I)] , give the reported half-life.
3.04

---

Assay: Solubility test of crystal form A in 9 vehicles (HPLC)
Type: physicochemical
Conditions: aqueous buffer, thermodynamic from solid; pH 4.5 buffer solution, 37° C., stirring 24 hrs
measure: solubility at 24 h
In your response, put the unit directly after the numeric value.

For the compound shown here, CC(C)(Sc1nnc(Br)n1-c1sc(C2CC2)c2c1CCC(F)(F)C2)C(=O)O [crystal form A] , give the reported solubility at 24 h.
1 µg/mL

---

Experiment: Solubility test of crystal form A in 9 vehicles (HPLC)
Assay type: physicochemical
Conditions: aqueous buffer, thermodynamic from solid; pH 6.8 buffer solution, 37° C., stirring 4 hrs
measure: solubility at 4 h (µg/mL)
Give bare numbers, in µg/mL.

For the compound shown here, CC(C)(Sc1nnc(Br)n1-c1sc(C2CC2)c2c1CCC(F)(F)C2)C(=O)O [crystal form A] , give the reported solubility at 4 h.
1960

---

Test: Plasma pharmacokinetics in male and female SD rats after single intravenous and intragastric administration
Type: in vivo
Settings: rat, male SD rats, IV single, 2.0 mg/kg, read-out: plasma clearance rate
measure: clearance (mL/min/kg)
Give bare numbers, in mL/min/kg.

For the compound shown here, CC(C)(Sc1nnc(Br)n1-c1sc(C2CC2)c2c1CCC(F)(F)C2)C(=O)O [compound of formula (I)] , give the reported clearance.
9.76

---

Test: Plasma pharmacokinetics in male and female SD rats after single intravenous and intragastric administration
Type: in vivo
Details: rat, female SD rats, IV single, 2.0 mg/kg, read-out: steady state apparent volume of distribution (Vdss)
Text: Experimental purpose: Plasma pharmacokinetics of male and female SD rats after single intravenous injection and intragastric administration as well as repeated intragastric administration for 8 days for the compound of formula (I). 1. In this experiment, 12 SD rats, half males and half females, were provided by Beijing Vital River Laboratory Animal Technologies Co., Ltd., and were divided into 2 groups according to the similarity of their body weights, each group had 3 females and 3 males. […]
measure: Vd (L/kg)
Answers are plain numbers, in L/kg.

For the compound shown here, `CC(C)(Sc1nnc(Br)n1-c1sc(C2CC2)c2c1CCC(F)(F)C2)C(=O)O` , give the reported Vd.
1.55

---

Assay: Plasma pharmacokinetics in male and female SD rats after single intravenous and intragastric administration
Type: in vivo
Settings: rat, male SD rats, single intragastric (PO) 4.0 mg/kg, read-out: elimination half-life (T1/2) (converted)
measure: half-life (h)
One number for each entry, in h.

For the compound shown here, `CC(C)(Sc1nnc(Br)n1-c1sc(C2CC2)c2c1CCC(F)(F)C2)C(=O)O` , give the reported half-life.
1.72

---

Experiment: Solubility test of crystal form A in 9 vehicles (HPLC)
Format: physicochemical
Conditions: aqueous buffer, thermodynamic from solid; pH 5.5 buffer solution, 37° C., stirring 24 hrs
measure: solubility at 24 h (µg/mL)
Numbers only, in µg/mL.

For the compound shown here, CC(C)(Sc1nnc(Br)n1-c1sc(C2CC2)c2c1CCC(F)(F)C2)C(=O)O [crystal form A] , give the reported solubility at 24 h.
66

---

Assay: Plasma pharmacokinetics in male and female SD rats after single intravenous and intragastric administration
Type: in vivo
Details: rat, male SD rats, IV single, 2.0 mg/kg, read-out: T1/2 (converted)
measure: half-life (h)
One number for each entry, in h.

For the compound shown here, `CC(C)(Sc1nnc(Br)n1-c1sc(C2CC2)c2c1CCC(F)(F)C2)C(=O)O` , give the reported half-life.
2.52
